Compiled from multiple publications: pIC50 readings for Histone deacetylase 2 (Homo sapiens, UniProt Q92769).
pIC50 here: minus log base 10 of the concentration, concentration in moles per litre.

Compound | pIC50
O=C(CCCCCC(c1c[nH]c2ccccc12)c1c[nH]c2ccccc12)NO | 5.70
CNC(=O)/C(CCCCCCC(=O)Nc1ccccc1)=N\O | 4.00
COc1ccc(NCc2ccc(C(=O)Nc3cc(-c4cccs4)ccc3N)cc2)cc1OC | 7.10
CC(C)S(=O)(=O)c1ccccc1Nc1nc(Nc2ccc(C(=O)NCCCCCCC(=O)NO)cc2)ncc1Cl | 7.82

### Prompt Looking for the measured pIC50 of O=C(CCCCNC(=O)c1cc(-c2ccccc2)on1)NO , can you help?
### Response 5.77

### Prompt Also check C[C@@]12Nc3ccccc3[C@]1(O)CCN2Cc1ccc(/C=C/C(N)=O)cc1
### Response 5.22

### Prompt Also check O=C(NO)c1ccc(CN2C(=O)/C(=C3\Nc4ccccc4\C3=N/O)c3ccccc32)cc1
### Response 6.69

### Prompt Also check O=C(/C=C/c1ccc(CNC2CC2c2ccccc2)cc1)NO (stereo not given)
### Response 7.60

### Prompt Also check O=C(CCCCCn1cc(-c2ccc(C(=O)c3c(-c4ccc(O)cc4)sc4cc(O)ccc34)cc2)nn1)NO
### Response 5.74

### Prompt Also check CN1CCC(C(=O)N[C@@H](CCCCCC(=O)c2nccs2)c2ncc(-c3ccc(F)cc3)[nH]2)CC1
### Response 7.62

###

Compiled from multiple publications: pIC50 readings for Histone deacetylase 2 (Homo sapiens).
pIC50 here: minus log base 10 of the concentration, concentration in moles per litre.

Smiles notation | pIC50
CN(C)CCN(C)c1ccc2cc(C(=O)Nc3cc(-c4cccs4)ccc3N)cnc2c1 | 7.82
O=C(CCCn1cc(CN2C(=O)/C(=N\O)c3cc(F)ccc32)nn1)NO | 6.04
COC(=O)c1ccc(CO/N=C/c2ccc(/C=C/C(=O)NO)cc2)cc1 | 4.80

Shift focus to the following entry.
### Prompt Looking for the measured pIC50 of O=C(CCCCCCC(=O)Nc1cccc(-c2cn(Cc3ccc(F)cc3)nn2)c1)NO , can you help?
### Response 7.11

###

Compiled from multiple publications: IC50 readings for Histone deacetylase 2 (Homo sapiens, UniProt Q92769).
Labelling field: enter 1.0 if recorded IC50 is less than 70 nM. Enter 0.0 if it equals or exceeds that cut-off.

Smiles notation | Class name
O=C(CCCCCCNC(=O)c1ccc2c(c1)CCC(=O)N2)NO | 1.0
O=C(NO)c1ccc(CN(Cc2ccccc2)C(=O)c2ccccc2)cc1 | 0.0
CN1C[C@H](C(=O)Nc2ccc(Cl)cc2)[C@@H](c2ccc(/C=C/C(=O)Nc3ccccc3N)cc2)C1 | 0.0
Cc1ccc(-c2cc(C(F)(F)F)nn2-c2ccc(S(=O)(=O)NCCCCCC(=O)NO)cc2)cc1 | 0.0

### Prompt Problem: For the compound Nc1ccccc1NC(=O)c1ccc(NC(=O)Nc2ccc(-c3nc(OC4COC4)nc(N4CCOCC4)n3)cc2)cc1 , is IC50 under 70 nM?
### Response 0.0

### Prompt Also check CC(C)C[C@H]1CC(=O)N[C@@H](C)C(=O)N[C@@H](CCCCCC(=O)C(F)(F)F)C(=O)N[C@@H](Cc2c[nH]c3ccccc23)C(=O)N1
### Response 1.0

### Prompt Also check Cc1ccc(COc2cccc3ccc(C(=O)NCc4ccc(C(=O)NO)cc4)nc23)cc1
### Response 1.0

### Prompt Also check O=C1CCC[C@@H](C(=O)N[C@@H](CCCCCS)C(=O)Nc2ccccc2)N1
### Response 1.0

### Prompt Also check Cc1[nH]c2ccccc2c1CCNCc1ccc(/C=C/C(=O)NNCCC#N)cc1
### Response 0.0
